# Tested on: HT29 colon
# ASSAY PROCEDURE: NCI tumour cell line growth inhibition, 48 h
Where a SMILES comes first, the peptide text is derived from it.
Listed next: entries and their corresponding TGI.

{"MOLECULE": "COC(=O)N[C@H]1C=C[C@@H]2/C=C(C)/C=C/[C@@H](C)[C@H]([C@H](C)[C@H](O)[C@@H](C)NC(C)=O)OC(=O)/C=C/C=C(C)\\C=C\\[C@]2(C)C1", "TGI": "> 45.3 µM"}
{"MOLECULE": "CN(C)C(=S)/N=c1\\ssc(=Nc2ccccc2)n1C", "TGI": "> 100 µM"}
{"MOLECULE": "CCC(C)C1NC(=O)C(CCCCN)NC(=O)C(CCCCN)NC(=O)C(CC(C)C)NC(=O)C(CCCCN)NC(=O)C(C(C)CC)NC(=O)C(C(C)C)NC(=O)C(C(C)CC)NC(=O)C(CCCCN)NC(=O)C(CCCCN)NC(=O)C(C)NC(=O)C(CCCCN)NC(=O)C(CC(C)C)NC1=O (configuration not stated) (cyclo(AKKIVIKLKKILK); configuration not given here)", "TGI": "10.8 µM"}
{"MOLECULE": "COC(=O)C(C)NP(=O)(OCc1ccc(Cn2cnc3c(N)ncnc32)cc1)Oc1ccccc1 (configuration not stated)", "TGI": "> 100 µM"}
{"MOLECULE": "COC(=O)[C@@H]1c2[nH]c3ccccc3c2C[C@@H]2c3ccccc3NC(=O)[C@@H]21", "TGI": "> 100 µM"}
{"MOLECULE": "CC1(O)C(C)(O)C(C)(O)C1(C)O (configuration not stated)", "TGI": "> 100 µM"}
{"MOLECULE": "N#CC(NCCc1ccccc1)c1ccc(C(C#N)NCCc2ccccc2)cc1 (configuration not stated)", "TGI": "> 100 µM"}
{"MOLECULE": "CN1CCN(Cc2nc3cccc4c3c([n+]2[O-])-c2ccccc2-4)CC1", "TGI": "> 61.1 µM"}
{"MOLECULE": "O=C(O)CCC1(C(=O)O)CCC(=O)c2ccccc21 (configuration not stated)", "TGI": "> 100 µM"}
{"MOLECULE": "O=[N+]([O-])/C(C(Cl)=C(Cl)Cl)=C(\\Nc1cccc2ccccc12)n1nnc2ccccc21", "TGI": "> 100 µM"}
{"MOLECULE": "O=C(O)C(CO)N=Cc1nc(-c2ccccc2)oc1O (configuration not stated)", "TGI": "> 100 µM"}
{"MOLECULE": "CCOC(=O)C(C(=O)OCC)P(=S)(S)c1ccccc1 (configuration not stated)", "TGI": "> 100 µM"}
{"MOLECULE": "CCCCCN1C(=O)/C(=c2\\sc3n(c2=O)C2C(NN=3)N(CC)C(=O)N2CC)c2ccccc21 (configuration not stated)", "TGI": "3.02 µM"}
{"MOLECULE": "CCCCCCCCCCCCCCCC(=O)Nc1ccn([C@@H]2O[C@H](CO)[C@@H](O)[C@@H]2C#N)c(=O)n1", "TGI": "> 100 µM"}
{"MOLECULE": "CC(CO)CCC(O)C(C)(O)C1CCC2(O)C3=CC(=O)C4CC(O)C(O)CC4(C)C3CCC12C (configuration not stated)", "TGI": "> 100 µM"}
{"MOLECULE": "CCCCCC[n+]1noc(N)c1-c1ccc(-c2c(N)on[n+]2CCCCCC)cc1", "TGI": "4.01 µg/mL"}
{"MOLECULE": "CC[O-].CC[O-].CN(C)c1ccc([O-])cc1.CN(C)c1ccc([O-])cc1.[Ti+4]", "TGI": "49.5 µM"}
